B1: PhoQ; a variant is named by its letters at X, in order, P23837 (parent)
chain: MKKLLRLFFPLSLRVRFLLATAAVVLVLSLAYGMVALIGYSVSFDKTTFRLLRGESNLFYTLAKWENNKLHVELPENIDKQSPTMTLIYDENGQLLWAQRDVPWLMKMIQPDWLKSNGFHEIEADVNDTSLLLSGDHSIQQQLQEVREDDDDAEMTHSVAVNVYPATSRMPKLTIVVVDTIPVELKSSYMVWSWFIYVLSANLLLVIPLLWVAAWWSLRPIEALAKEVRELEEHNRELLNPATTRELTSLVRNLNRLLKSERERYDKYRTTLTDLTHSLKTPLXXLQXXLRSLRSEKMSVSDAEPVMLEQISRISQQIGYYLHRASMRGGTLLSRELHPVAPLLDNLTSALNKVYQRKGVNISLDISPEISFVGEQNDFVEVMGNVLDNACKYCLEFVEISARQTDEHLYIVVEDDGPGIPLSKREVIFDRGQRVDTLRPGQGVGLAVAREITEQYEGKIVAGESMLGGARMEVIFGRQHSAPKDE

variants of: B1; experiment: enrichment ratio after two sorts for PhoP signalling (ratio (wild type AVST 3.29)); higher = more functional; details: with PhoP (E. coli)
The full ranking holds about 140,000 sequences; the median of “enrichment ratio after two sorts for PhoP signalling” is about 0, and the highest 2% start at about 11. Many of the other results were omitted from the sample, so the highest values are more common in it than they were.
Readout type: enrichment ratio

Report measured enrichment ratio; entry is `NQQC`
≤ 0.25

Look up and report measured enrichment ratio for this entry: `VVQC`
12.7

Provide only the value of recorded enrichment ratio for `NSQC`
≤ 0.25

Complete the entry with enrichment ratio for `TSQC`
14.5

Assign enrichment ratio to the following record: `VLQC`
≤ 0.25

Annotate the variant `VYQC` with its measured enrichment ratio.
≤ 0.25

Note down enrichment ratio recorded for `NHQC`
≤ 0.25

Identify the reported enrichment ratio for the following entry. `PPYC`
≤ 0.25

Look up and report measured enrichment ratio for this entry: `KAQC`
≤ 0.25

Provide enrichment ratio value for the following variant: `TKQC`
12.8

Report enrichment ratio for `MGTI`
12.5
